MEASURED ON: UniProtKB P07288
Sequence (P07288 25-261): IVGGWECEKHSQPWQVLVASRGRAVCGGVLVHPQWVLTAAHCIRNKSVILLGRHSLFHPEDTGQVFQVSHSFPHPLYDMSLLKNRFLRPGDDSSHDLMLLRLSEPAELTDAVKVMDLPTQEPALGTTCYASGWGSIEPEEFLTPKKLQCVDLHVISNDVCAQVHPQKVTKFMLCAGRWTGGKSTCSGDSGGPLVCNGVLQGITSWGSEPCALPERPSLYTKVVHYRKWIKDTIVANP
EXPERIMENTAL PROTOCOL: Hydrolysis of doxorubicin prodrugs by PSA (PSA enzyme assay, LC-MS/MS prodrug disappearance)
SETUP CONDITIONS: human, pH 8
Square brackets hold non-standard residues; d marks the D form. Peptide text beside a SMILES is read from it. * marks the point of attachment. Doxorubicin(3'-N) = COc1cccc2c1C(=O)c1c(O)c3c(c(O)c1C2=O)C[C@@](O)(C(=O)CO)C[C@@H]3O[C@H]1C[C@H](N*)[C@H](O)[C@H](C)O1; Chg = N[C@H](C(=O)O)C1CCCCC1; X1 = O=C(O)CCCNC(=O)CC(=O)*
half-life at 1 μM values by entry
Give just the numeric value; min need not be written.

COMPOUND | half-life at 1 μM [min]
COc1cccc2c1C(=O)c1c(O)c3c(c(O)c1C2=O)C[C@@](O)(C(=O)COC(=O)C(C)(C)CONC(=O)[C@H](CCC(N)=O)NC(=O)[C@@H](NC(=O)[C@H](CO)NC(=O)[C@H](C)NC(=O)CC(=O)NCCCC(=O)O)C1CCCCC1)C[C@@H]3O[C@H]1C[C@H](N)[C@H](O)[C@H](C)O1 [Prodrug 4] | 67

// next entry
Note half-life at 1 μM for the compound shown: COc1cccc2c1C(=O)c1c(O)c3c(c(O)c1C2=O)C[C@@](O)(C(=O)CO)C[C@@H]3O[C@H]1C[C@H](NC(=O)[C@H](CC(C)C)NC(=O)[C@H](CO)NC(=O)[C@H](CCC(N)=O)NC(=O)[C@@H](NC(=O)[C@H](CO)NC(=O)[C@H](C)NC(=O)CC(=O)NCCCC(=O)O)C2CCCCC2)[C@H](O)[C@H](C)O1 [Prodrug 3, GABA←mGly-Ala-Ser-Chg-Gln-Ser-Leu-Dox] (X1-AS[Chg]QSL-{Doxorubicin(3'-N)})
22
